testProtocol: qHTS Assay for Modulators of miRNAs and/or Inhibitors of miR-21; also: potency is read from the fitted curve at half-maximal effect; nearly all actives have a fitted effect of over 55% in size
measurementConditions: HeLa miR-21-FLuc reporter, luciferase luminescence, 48 h; actives lower the signal
The whole screen tested about 340,000 compounds, of which about 3,300 (0.97%) were called active. Another 9% or so got no clear call; they are omitted. This is one part of the list.
attributeMeasured: Potency

compound	reading
Cc1ccc2nc(NC(=S)NC(=O)c3cccs3)sc2c1	0.656 µM (active)
CC1CCN(C(=O)c2cc(-c3ccco3)on2)CC1	3.69 µM (active)
COc1ccc2cc(-c3csc(-c4cccnc4)n3)ccc2c1	3.29 µM (active)
Cc1ccc2nc(-c3ccc(N4C(=NC(=O)CCC(=O)O)SC5CS(=O)(=O)CC54)cc3)sc2c1 (stereo not given)	3.29 µM (active)
O=[N+]([O-])c1cc(C(F)(F)F)ccc1NCCOc1ccccc1	7.36 µM (active)
